Origin of measurements: the supplement of paper PMC12406974

# Tested on: U2OS;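 note: FLICK assay: SYTOX Green fluorescence of dead cells tracked over time after drugging in 96-well plates, with total cell counts taken from Triton X-100 lysed wells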
# experimental_details: maximum observed lethal fraction; higher = more cell death
# run_conditions: 0.0316 µM
Please note: Yes applies when maximum observed lethal fraction is 0.07 or greater, and No applies otherwise.

Past entries and their recorded results:
compound="CC(C)[C@]12O[C@H]1[C@@H]1O[C@]13[C@]1(O[C@H]1C[C@H]1C4=C(CC[C@@]13C)C(=O)OC4)[C@@H]2O [Triptolide]" group_label=Yes
compound=C/C=C(/C)C(=O)O[C@H]1C(C)=C2[C@H]([C@@H]1OC(=O)CCCCCCC)[C@@](C)(OC(C)=O)C[C@H](OC(=O)CCC)[C@@]1(O)[C@H]2OC(=O)[C@@]1(C)O group_label=Yes
compound=O=C(NOC[C@H](O)CO)c1ccc(F)c(F)c1Nc1ccc(I)cc1F group_label=Yes
compound=C[C@H]1CCC/C=C/[C@@H]2C[C@H](O)C[C@H]2[C@H](O)/C=C/C(=O)O1 group_label=Yes
compound=CC(C)C[C@@H](C=O)NC(=O)[C@H](CC(C)C)NC(=O)[C@H](CC(C)C)NC(=O)OCc1ccccc1 group_label=No
compound=CN(C)CC[C@H](CSc1ccccc1)Nc1ccc(S(=O)(=O)NC(=O)c2ccc(N3CCN(Cc4ccccc4-c4ccc(Cl)cc4)CC3)cc2)cc1[N+](=O)[O-] group_label=No

Let's switch to this compound now.
Query: Test whether the compound Nc1cc(C(F)(F)F)c(-c2cc(N3CCOCC3)nc(N3CCOCC3)n2)cn1 records maximum observed lethal fraction of 0.07 or higher.
Reply: No
